Tested on: hen egg-white lysozyme (HEWL) (Gallus gallus)
Construct: gene LYZ
Sequence (P00698 19-147): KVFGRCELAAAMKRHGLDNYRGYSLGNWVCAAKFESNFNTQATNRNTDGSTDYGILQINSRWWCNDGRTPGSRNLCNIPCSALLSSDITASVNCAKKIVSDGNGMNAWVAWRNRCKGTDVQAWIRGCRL
Assay text: UV-Vis absorbance titration (binding constant K), […]; DSC; ESI-MS
Particulars: read-out: K (M^-1) ^1
Quantity: Kd

Reported hen egg-white lysozyme (HEWL) (Gallus gallus) Kd for item `O=S(=O)(O)C(F)(F)F.[Cl][Pt-2]12[n+]3ccccc3-c3cc(-c4ccccc4)cc([n+]31)-c1cccc[n+]12` was 58.8 µM
